Origin of values: ChEMBL document CHEMBL6121003

- Target Under Test: Phosphatidylinositol 4,5-bisphosphate 3-kinase catalytic subunit gamma isoform (Homo sapiens, UniProt P48736)
- Sequence (P48736 whole entry, canonical isoform): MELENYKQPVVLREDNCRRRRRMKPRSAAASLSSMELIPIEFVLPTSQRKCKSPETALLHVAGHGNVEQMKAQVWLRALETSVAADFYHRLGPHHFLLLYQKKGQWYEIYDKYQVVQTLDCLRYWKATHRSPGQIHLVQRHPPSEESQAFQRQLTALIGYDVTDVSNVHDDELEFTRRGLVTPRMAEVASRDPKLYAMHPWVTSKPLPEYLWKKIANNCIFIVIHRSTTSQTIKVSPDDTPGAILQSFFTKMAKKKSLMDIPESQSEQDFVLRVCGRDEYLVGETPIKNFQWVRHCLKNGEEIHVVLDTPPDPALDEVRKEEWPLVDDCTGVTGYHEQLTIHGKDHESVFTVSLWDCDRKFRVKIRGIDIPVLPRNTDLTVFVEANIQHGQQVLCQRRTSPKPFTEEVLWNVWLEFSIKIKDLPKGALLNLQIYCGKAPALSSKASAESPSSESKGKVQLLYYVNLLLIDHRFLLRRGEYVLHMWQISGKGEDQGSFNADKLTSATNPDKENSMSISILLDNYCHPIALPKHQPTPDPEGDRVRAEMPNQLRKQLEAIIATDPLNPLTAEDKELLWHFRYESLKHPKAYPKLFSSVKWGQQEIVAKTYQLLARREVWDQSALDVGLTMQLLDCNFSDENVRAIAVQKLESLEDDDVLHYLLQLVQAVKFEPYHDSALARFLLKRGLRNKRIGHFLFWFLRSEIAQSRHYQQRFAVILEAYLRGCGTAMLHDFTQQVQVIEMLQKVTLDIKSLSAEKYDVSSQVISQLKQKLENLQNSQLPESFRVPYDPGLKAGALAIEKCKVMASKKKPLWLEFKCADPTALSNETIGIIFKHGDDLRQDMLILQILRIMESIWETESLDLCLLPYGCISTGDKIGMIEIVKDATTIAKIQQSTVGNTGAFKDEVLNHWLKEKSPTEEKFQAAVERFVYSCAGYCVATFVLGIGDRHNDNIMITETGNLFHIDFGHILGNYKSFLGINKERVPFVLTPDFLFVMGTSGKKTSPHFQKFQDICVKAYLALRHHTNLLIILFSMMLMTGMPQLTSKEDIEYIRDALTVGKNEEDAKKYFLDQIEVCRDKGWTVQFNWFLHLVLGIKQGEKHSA
- Assay Notes: Inhibition of PI3K gamma (unknown origin) using PIP2 as substrate measured after 1 hr in presence of ATP by ADP-glo luminescence assay
Recorded Metric: IC50 (nM)

- O=C(Nc1ccc(C(=O)N2CCC[C@@H]2CO)cc1)Nc1ccc(-c2nc(N3CCOCC3)nc(N3CCOCC3)n2)cc1: 32.3
- O=C(Nc1ccc(C(=O)N2CCC[C@H]2CO)cc1)Nc1ccc(-c2nc(N3CCOCC3)nc(N3CCOCC3)n2)cc1: 4.8
- CN1CCN(C(=O)c2ccc(NC(=S)Nc3ccc(-c4nc(N5CCOCC5)nc(N5CCOCC5)n4)cc3)cc2)CC1: 657

I. COc1ncc(-c2ccc3nccc(-c4ccnnc4)c3c2)cc1NS(=O)(=O)c1ccc(F)cc1F
II. O=C(c1ccc(NC(=S)Nc2ccc(-c3nc(N4CCOCC4)nc(N4CCOCC4)n3)cc2)cc1)N1CCC[C@H]1CO
Lab notebook, comparison: I versus II , higher IC50 goes to which? Your answer should be the label attached to the chosen record.
II
(II: 123 nM, I: 0.86 nM)

###

- Target Under Test: Phosphatidylinositol 4,5-bisphosphate 3-kinase catalytic subunit beta isoform (Homo sapiens, UniProt P42338)
- Sequence (P42338 whole entry, canonical isoform): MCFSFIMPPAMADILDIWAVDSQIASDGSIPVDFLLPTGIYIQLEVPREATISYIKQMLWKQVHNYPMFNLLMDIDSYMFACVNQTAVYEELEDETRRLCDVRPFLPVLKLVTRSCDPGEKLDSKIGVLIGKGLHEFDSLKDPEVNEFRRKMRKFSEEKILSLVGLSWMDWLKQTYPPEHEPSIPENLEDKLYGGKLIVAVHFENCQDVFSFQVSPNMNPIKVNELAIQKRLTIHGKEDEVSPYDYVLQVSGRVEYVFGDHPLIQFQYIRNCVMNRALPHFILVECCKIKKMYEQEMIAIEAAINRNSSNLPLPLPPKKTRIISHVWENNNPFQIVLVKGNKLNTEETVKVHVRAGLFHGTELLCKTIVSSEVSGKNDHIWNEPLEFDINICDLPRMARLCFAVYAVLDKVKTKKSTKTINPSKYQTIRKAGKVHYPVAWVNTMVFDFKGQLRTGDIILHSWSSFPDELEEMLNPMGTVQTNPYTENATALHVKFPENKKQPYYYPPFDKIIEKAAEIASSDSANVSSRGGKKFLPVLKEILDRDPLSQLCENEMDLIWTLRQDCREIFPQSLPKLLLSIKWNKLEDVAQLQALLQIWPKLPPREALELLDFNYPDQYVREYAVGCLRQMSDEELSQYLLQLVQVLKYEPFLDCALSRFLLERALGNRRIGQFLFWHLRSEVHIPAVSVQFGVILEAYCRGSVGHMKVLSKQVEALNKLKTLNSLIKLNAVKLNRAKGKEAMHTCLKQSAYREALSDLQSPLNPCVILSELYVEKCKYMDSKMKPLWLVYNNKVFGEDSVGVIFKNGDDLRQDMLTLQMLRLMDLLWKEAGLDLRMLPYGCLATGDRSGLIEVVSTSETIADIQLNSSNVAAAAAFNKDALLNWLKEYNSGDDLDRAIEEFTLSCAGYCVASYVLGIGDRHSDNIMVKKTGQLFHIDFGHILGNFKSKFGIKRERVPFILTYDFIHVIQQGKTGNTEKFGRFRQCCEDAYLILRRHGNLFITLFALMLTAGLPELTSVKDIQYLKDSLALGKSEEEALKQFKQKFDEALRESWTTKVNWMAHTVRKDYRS
- Assay Notes: Inhibition of PI3Kbeta (unknown origin) using PIP2 as substrate measured after 1 hr in presence of ATP by ADP-glo luminescence assay
pIC50: −log10 of the molar value.
Recorded Metric: pIC50

- O=C(c1ccc(NC(=S)Nc2ccc(-c3nc(N4CCOCC4)nc(N4CCOCC4)n3)cc2)cc1)N1CCC[C@H]1CO: 7.45

1. CN1CCN(C(=O)c2ccc(NC(=S)Nc3ccc(-c4nc(N5CCOCC5)nc(N5CCOCC5)n4)cc3)cc2)CC1
2. O=C(Nc1ccc(C(=O)N2CCC[C@H]2CO)cc1)Nc1ccc(-c2nc(N3CCOCC3)nc(N3CCOCC3)n2)cc1
3. O=C(Nc1ccc(C(=O)N2CCC[C@@H]2CO)cc1)Nc1ccc(-c2nc(N3CCOCC3)nc(N3CCOCC3)n2)cc1
Sort (3 compounds) by pIC50: min first. Lab note: final answer is the ordered label list.
1, 3, 2

###

- Target Under Test: UniProtKB P05177
- Sequence (P05177 whole entry): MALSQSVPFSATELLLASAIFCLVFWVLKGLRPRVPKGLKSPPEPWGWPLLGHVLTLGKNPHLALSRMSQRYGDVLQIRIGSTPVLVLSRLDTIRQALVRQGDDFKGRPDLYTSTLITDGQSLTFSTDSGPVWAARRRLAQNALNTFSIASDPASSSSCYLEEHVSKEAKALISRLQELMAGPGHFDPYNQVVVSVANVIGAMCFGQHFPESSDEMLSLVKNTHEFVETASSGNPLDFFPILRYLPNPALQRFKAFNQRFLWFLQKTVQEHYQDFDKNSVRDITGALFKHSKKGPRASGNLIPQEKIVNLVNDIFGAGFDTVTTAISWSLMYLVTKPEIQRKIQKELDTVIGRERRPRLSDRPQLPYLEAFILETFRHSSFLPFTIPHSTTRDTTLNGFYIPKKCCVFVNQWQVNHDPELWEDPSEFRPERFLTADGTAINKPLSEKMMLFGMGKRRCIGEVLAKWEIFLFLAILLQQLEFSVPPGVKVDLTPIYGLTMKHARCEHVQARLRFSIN
- Assay Notes: Inhibition of CYP1A2 (unknown origin) at 10 uM relative to control
- Type: ADME
Recorded Metric: inhibition at 10 µM (%)
Field: numeric (%). Do not append units.

Give the reported value of inhibition at 10 µM for this record: O=C(Nc1ccc(C(=O)N2CCC[C@H]2CO)cc1)Nc1ccc(-c2nc(N3CCOCC3)nc(N3CCOCC3)n2)cc1
10

###

- Target Under Test: hERG (KCNH2) (Homo sapiens, UniProt Q12809)
- Sequence (Q12809 whole entry): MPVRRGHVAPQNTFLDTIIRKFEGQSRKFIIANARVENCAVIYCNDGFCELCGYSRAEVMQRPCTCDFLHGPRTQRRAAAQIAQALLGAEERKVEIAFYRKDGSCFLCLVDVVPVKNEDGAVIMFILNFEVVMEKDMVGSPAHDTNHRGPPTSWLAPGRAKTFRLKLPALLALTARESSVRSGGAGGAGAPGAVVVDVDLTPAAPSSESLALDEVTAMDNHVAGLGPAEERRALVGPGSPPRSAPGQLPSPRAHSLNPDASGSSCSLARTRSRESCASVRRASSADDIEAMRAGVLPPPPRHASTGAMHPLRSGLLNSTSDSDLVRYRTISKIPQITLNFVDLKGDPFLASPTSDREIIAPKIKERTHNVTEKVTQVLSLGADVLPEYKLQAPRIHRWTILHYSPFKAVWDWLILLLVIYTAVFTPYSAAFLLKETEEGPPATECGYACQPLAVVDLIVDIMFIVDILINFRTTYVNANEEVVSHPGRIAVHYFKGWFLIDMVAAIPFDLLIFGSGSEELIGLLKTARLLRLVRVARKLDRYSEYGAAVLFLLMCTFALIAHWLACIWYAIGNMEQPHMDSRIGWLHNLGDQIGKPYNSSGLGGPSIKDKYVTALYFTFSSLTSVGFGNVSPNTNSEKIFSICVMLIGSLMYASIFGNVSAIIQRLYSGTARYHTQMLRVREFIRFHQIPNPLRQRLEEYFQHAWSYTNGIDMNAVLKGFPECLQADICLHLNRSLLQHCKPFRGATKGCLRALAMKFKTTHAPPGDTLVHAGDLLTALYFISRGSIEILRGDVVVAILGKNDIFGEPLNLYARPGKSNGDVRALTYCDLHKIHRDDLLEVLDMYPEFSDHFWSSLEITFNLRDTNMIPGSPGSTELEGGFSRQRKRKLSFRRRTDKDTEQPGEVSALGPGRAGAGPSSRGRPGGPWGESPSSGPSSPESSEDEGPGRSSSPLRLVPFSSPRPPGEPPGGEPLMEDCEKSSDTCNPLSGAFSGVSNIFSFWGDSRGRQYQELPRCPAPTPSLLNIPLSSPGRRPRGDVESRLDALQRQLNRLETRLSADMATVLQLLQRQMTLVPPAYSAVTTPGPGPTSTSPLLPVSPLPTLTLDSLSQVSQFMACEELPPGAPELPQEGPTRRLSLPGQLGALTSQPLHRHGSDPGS
- Assay Notes: Inhibition of human ERG at 20 uM relative to control
- Format: toxicity
Recorded Metric: inhibition at 20 µM (%)
Field: numeric (%). Do not append units.

Give the reported value of inhibition at 20 µM for this record: O=C(Nc1ccc(C(=O)N2CCC[C@H]2CO)cc1)Nc1ccc(-c2nc(N3CCOCC3)nc(N3CCOCC3)n2)cc1
15
